tested on: KM12; test: NCI tumour cell line growth inhibition, 48 h
Calls of active or inactive are those of the source. No stated cut-off is given here; in the data, active = GI50 up to about 1.1 µM and inactive = higher.
Pick one and only one: YES = active, NO = inactive

| compound | class.assignment |
| --- | --- |
| COc1cc2c(cc1OCCCN1C(=O)c3cccc4cccc(c34)C1=O)N=C[C@@H]1CCCN1C2=O | NO |
| CCc1c(C)[nH]c2c1/C(=N/N=C1\CCCc3[nH]c(C)c(CC)c31)CCC2 | NO |
| COc1cc(C[P+](c2ccccc2)(c2ccccc2)c2ccccc2)cc(OC)c1OC | NO |
| CC(=O)Nc1ccc(Sc2nnc(NC(C)=O)s2)cc1 | NO |
| C[N+]12C=CC=C1C(N1CCCC1)c1scc(-c3ccc(F)cc3)c12 (stereo unspecified) | NO |

For O=C(NCCCC/N=c1/cccccc1NCCCCNC(=O)OCc1ccccc1)OCc1ccccc1 , what call appears in the results of this test?
NO

For CN(C)c1nncc2[nH]cnc12 , what call appears in the results of this test?
NO

For COc1cc2[nH]c(=O)[nH]c2c2c(C)c[nH]c12 , what call appears in the results of this test?
NO
